Test system: HT-29
Assay: Cytotoxicity against human HT-29 cells
Assay type: functional, cell-based
The source made the active and inactive calls. The calls are words filed in the database; no cut-off is given here.
Entry note: the call must match one of active, inactive

Problem: For O=C(/C=C/c1ccc(Cl)cc1)c1ccccc1O , which call appears in the assay record?
Result: active

Problem: Item: O=C(/C=C/c1ccccc1)c1ccccc1O [2'-HYDROXYCHALCONE]
Result: active

Problem: Item: O=C(/C=C/c1ccc(Cl)cc1)c1ccccc1
Result: active

Problem: Item: COc1ccc(C2CC(=O)c3ccccc3O2)cc1 (centres undefined)
Result: inactive
